meta.source: paper PMC4774891

assay: Oral pharmacokinetic study; assay type: in vivo, Sprague Dawley rats; conditions: Sprague Dawley, rat, plasma, po, 50 mg/kg
QUANTITY KIND: AUC(0-inf) (ng·h/mL)

- COMPOUND: "COc1cc2ncnc(Nc3ccc(F)c(Cl)c3)c2cc1OCCCN1CCOCC1 [Gef free drug, Gefitinib]"
  QUANTITY KIND: "AUC(0-inf)"
  MEASURED VALUE: 1340

###

test: Oral pharmacokinetic study; format: in vivo, Sprague Dawley rats; details: Sprague Dawley, rat, plasma, po, 50 mg/kg

- COMPOUND: "COc1cc2ncnc(Nc3ccc(F)c(Cl)c3)c2cc1OCCCN1CCOCC1 [Gef free drug, Gefitinib]"
  MRT [h]: 8.85

###

assay: Oral pharmacokinetic study; assay type: in vivo, Sprague Dawley rats; details: Sprague Dawley, rat, plasma, po, 50 mg/kg
QUANTITY KIND: Tmax (h)

- COMPOUND: "COc1cc2ncnc(Nc3ccc(F)c(Cl)c3)c2cc1OCCCN1CCOCC1 [Gef free drug, Gefitinib]"
  QUANTITY KIND: "Tmax"
  MEASURED VALUE: 1.25

###

test: Caco-2 permeability study; details: human, Caco-2, pH 5.8

- MOLECULE: "COc1cc2ncnc(Nc3ccc(F)c(Cl)c3)c2cc1OCCCN1CCOCC1 [Gef free drug, Gefitinib]"
  Papp A→B at 120 min, 100 μM: "0.34 ×10⁻⁶ cm/s"
